# Tested Target: NADPH oxidase 2 (Homo sapiens)
# Protocol Summary: NOX2-dependent H2O2 signal modulators, primary screen, NOX inhibitor project, cell-based, HEK293-NOX2, PMA-stimulated, Amplex Red fluorescence (AID 1159); further: test concentration not given here
# Experimental Parameters: 45 min, higher = more signal, called active from +8 up or from −8 down
Measured Metric: z-score
Form rule: numeric answer, no unit written next to it.

Known results for compounds:
Query block: # lookup: z-score of "O=C1C[C@H](c2ccccc2)[C@H](c2ccc(Br)cc2)O1"
Result block: 0.146

Query block: Field entry: "CO[C@H]1COC(=O)CC=C[C@H](C)[C@H](OC)COC(=O)[C@@H](C)NC(=O)CC=C[C@@H]1C"
Result block: -0.677

Query block: Also "C[C@H]1C=CCC(=O)OC[C@H](C)C(=O)N2CCC[C@H]2C(=O)OC1" ?
Result block: 0.166

Query block: // next record "CO[C@H]1C[C@@H]2C[C@H](O)CC(CC(=O)O[C@@H](C=CCC(C)C)C[C@@H]3CC[C@H](C)[C@@H](C1)O3)O2"
Result block: -1.17

Others:
Query block: What measured z-score goes with "CC(C)[C@@H](OCc1ccccc1)[C@H](C)CON=C1[C@H]2CCn3c(=O)n(-c4ccccc4)c(=O)n3[C@H]2[C@H](O)[C@@H]2O[C@H]12" ?
Result block: -0.662

Query block: Also, "COc1ccc(COC(=O)NN=C2C[C@@H](O)[C@@H](O)[C@@H]3[C@@H]4C(=O)N([C@@H](C)c5ccccc5)C(=O)[C@@H]4CC[C@@H]23)cc1" please.
Result block: -0.247

Query block: Can you handle "O=C1C=C[C@@H](O)[C@@H]2[C@@H]3C(=O)N(c4cccc(Oc5ccccc5)c4)C(=O)[C@@H]3CC[C@@H]12" next?
Result block: 0.472

###

# Test system: wheat germ agglutinin (Triticum aestivum), Alexa647-labelled
# Protocol Summary: wheat germ agglutinin binders on compound microarrays, profiling panel, artefact control for SMM control-protein annotation, biochemical, small-molecule microarray, 635/667 nm fluorescence (AID 1140);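 further: score merges 667 nm feature emission with signal to noise over triplicate slides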
# Experimental Parameters: WGA-A647 binding, 635 nm fluorescence, higher = more signal
Measured Metric: composite z-score
// return a plain number; no unit text

Query block: Fill in the blank: the reported composite z-score of "O=C1[C@H]2[C@H]3[C@H](O)[C@H](O)CC(=NO[C@@H]4O[C@H](CO)[C@@H](O)[C@H](O)[C@H]4O)[C@@H]3CC[C@H]2C(=O)N1C1CCCCC1" is ____.
Result block: 0.0714

Query block: Next up: "O=C1[C@H]2[C@H]3[C@H](O)[C@H](O)CC(=NOCc4ccccc4)[C@H]3CC[C@H]2C(=O)N1C1CCCCC1"
Result block: 0.971

Query block: Similarly, "CCCNC(=O)OC[C@H]1O[C@H](CCON=C[C@@H](NS(=O)(=O)c2ccc(C)cc2)[C@H](C)C=CCC(=O)OC)C=C[C@@H]1Oc1ccc(OC)cc1" ?
Result block: 0.391

Further cases:
Query block: composite z-score for "COC(=O)[C@H](CCSC)NC(=O)CC=C[C@@H](C)CO" ?
Result block: -0.701

###

# Tested on: Inhibin beta A chain (activin A)
# Protocol Summary: INHBA (activin A) binders on microarrays, primary screen, biochemical, small-molecule microarray, 635 nm fluorescence scan (AID 1107);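 further: mouse activin A protein probed at 4.33 µg/mL on printed slides; score merges bound-protein fluorescence near 667 nm with spot signal-to-noise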
# Experimental Parameters: small-molecule microarray binding, higher = more signal
// class assignment uses composite z-score with these ranges: c1 = under 0.2, c2 = from 0.2 up to 0.9, c3 = 0.9 and over

Query block: Classify this compound: COC(=O)[C@H](C)NC(=O)CCC1CC(OC(=O)NCCc2ccc(F)cc2)CC2(CCCC(COC(=O)NCCOc3ccccc3)O2)O1 (some centres not stated)
Result block: c1

Query block: Try the compound "C#CCCCON=C1C[C@@H](O)[C@@H](O)[C@@H]2[C@@H]3C(=O)N(C4CCCCC4)C(=O)[C@@H]3CC[C@@H]12"
Result block: c2

Query block: Now give it for "COC(=O)[C@H](Cc1ccccc1)NC(=O)[C@@H](C)CO" too.
Result block: c3

Query block: Then what about the compound "O=C1C=C[C@@H](O)[C@@H]2[C@@H]3C(=O)N(C4CCCCC4)C(=O)[C@@H]3CC[C@@H]12" ?
Result block: c2

Query block: Continue with "CC(CCN1CCc2nc(-c3ccccc3)c(-c3ccccc3)cc2C1)=NO[C@H](C)c1cn([C@H](CO)Cc2ccccc2)nn1"
Result block: c3

***
Query block: # bin lookup: classify CC(=O)OC[C@H]1O[C@H](CC=NOC(C)CN2CCCc3nc(C)c(C)cc32)C=C[C@@H]1OC(C)=O (some centres not stated) by its composite z-score
Result block: c2

Query block: Try CCc1cc2c(nc1CC)CCN(CCC(C)=NOC(C)CN1CCCCc3nc(C)c(C)cc31)C2 (configuration not stated) next.
Result block: c3

Query block: Same lookup for "CCN1C(=O)[C@H]2[C@H]3[C@H](O)[C@H](O)CC(=NOCC=C(C)CCC=C(C)C)[C@@H]3CC[C@H]2C1=O" , please.
Result block: c3

Query block: Another: "CCOC(=O)CCN1C(=O)[C@H]2[C@H]3[C@H](O)[C@H](O)CC(=NOCC=C(C)CCC=C(C)C)[C@@H]3CC[C@H]2C1=O"
Result block: c1

Query block: Note, next up: "O=C1[C@H]2[C@H]3[C@H](O)[C@H](O)CC(=NOC[C@@H](O)COCc4ccco4)[C@@H]3CC[C@H]2C(=O)N1C1CCCCC1"
Result block: c3

Query block: Try "CC(C)[C@@H](OCc1ccccc1)[C@H](C)C=NO[C@H](C)c1cn([C@@H]2COC[C@H]2O)nn1" next.
Result block: c1

Query block: Same question for "OC[C@H]1O[C@H](C#Cc2ccccc2)C=C[C@@H]1O" please.
Result block: c2
